The reported measurements were obtained from patent US20120225909A1.

- Experimental Target: human β3-adrenergic receptor (Homo sapiens)
- Construct: A full-length human β3 gene is obtained from a human genomic library (made by Clontech) using this as the probe
- Sequence (P13945 whole entry): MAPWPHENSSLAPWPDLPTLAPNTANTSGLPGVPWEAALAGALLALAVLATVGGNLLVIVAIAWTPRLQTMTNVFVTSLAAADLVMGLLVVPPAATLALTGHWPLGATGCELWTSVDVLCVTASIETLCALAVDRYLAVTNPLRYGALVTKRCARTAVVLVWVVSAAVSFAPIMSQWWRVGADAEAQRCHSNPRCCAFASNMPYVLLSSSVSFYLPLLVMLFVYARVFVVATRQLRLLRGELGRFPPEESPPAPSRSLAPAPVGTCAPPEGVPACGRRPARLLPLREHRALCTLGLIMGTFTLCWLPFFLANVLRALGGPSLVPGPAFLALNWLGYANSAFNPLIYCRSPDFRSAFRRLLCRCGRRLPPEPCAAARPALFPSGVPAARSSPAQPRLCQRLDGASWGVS
- Experiment Description: Test Case 1-B: human β3-adrenergic receptor agonist activity (cAMP-Screen, 96-well)
- Applied Conditions: Test Case 1-B; CHO cells, cAMP
Measured Property: EC50 (nM)

Compound: COc1n[nH]c2cc(OCCNC[C@H](O)c3cccc(NS(=O)(=O)c4cccc(N)c4)c3)ccc12 [ex41]
Measured Property: EC50
Unit Of Measure: nM
Meas Value: 0.21

Compound: Cc1n[nH]c2cc(OCCNC[C@H](O)c3cccc(NS(=O)(=O)c4cc(F)ccc4F)c3)ccc12
Measured Property: EC50
Unit Of Measure: nM
Meas Value: 8.3

Compound: Nc1cccc(S(=O)(=O)Nc2cccc([C@@H](O)CNCCOc3ccc4c(Cl)n[nH]c4c3)c2)c1
Measured Property: EC50
Unit Of Measure: nM
Meas Value: 0.22

Compound: Cc1cccc(S(=O)(=O)Nc2cccc([C@@H](O)CNCCOc3ccc4c(C)n[nH]c4c3)c2)c1
Measured Property: EC50
Unit Of Measure: nM
Meas Value: 2.5

Compound: COc1n[nH]c2cc(OCCNC[C@H](O)c3cccc(NS(=O)(=O)c4cc(N)ccc4F)c3)ccc12
Measured Property: EC50
Unit Of Measure: nM
Meas Value: 0.7

Compound: O=S(=O)(Nc1cccc([C@@H](O)CNCCOc2ccc3c(C(F)(F)F)n[nH]c3c2)c1)c1ccccc1F
Measured Property: EC50
Unit Of Measure: nM
Meas Value: 85

Compound: COc1n[nH]c2cc(OCCNC[C@H](O)c3cccc(NS(=O)(=O)c4cccc(N)c4)c3)ccc12 [ex1]
Measured Property: EC50
Unit Of Measure: nM
Meas Value: 0.52

Compound: Cc1n[nH]c2cc(OCCNC[C@H](O)c3cccc(NS(=O)(=O)C4CCCC4)c3)ccc12
Measured Property: EC50
Unit Of Measure: nM
Meas Value: 293
